B1: TPR 5TU (parent)
chain: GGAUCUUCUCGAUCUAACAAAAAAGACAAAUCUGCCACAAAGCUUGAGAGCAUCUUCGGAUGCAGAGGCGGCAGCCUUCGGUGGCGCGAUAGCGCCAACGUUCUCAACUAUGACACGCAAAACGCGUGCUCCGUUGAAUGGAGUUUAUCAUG

Variants of: B1
MEASUREMENT NOTES: polymerase ribozyme fitness, log enrichment relative to wild type (log ratio); higher = more active; in vitro selection for triplet polymerase activity
Variants at the floor of the assay were thinned out.
So I've got a bunch of variants here, and I need their polymerase ribozyme fitness (log ratio) values.
Simply state the number, no unit and no words.

Form field: reported polymerase ribozyme fitness (log ratio) of A47G C123G U151C
-4.15

Another variant: U53A G94A
-1.61

Another variant: C116U C118A U139G
0.554

Another variant: G71A G86A
-3.5

Another variant: G59A G136C
-2.89

Another variant: A52G G86A
-0.796

Another variant: C93U C95U U102A A106G
-2.87

Another variant: C38A A41U A52C
-2.5

Another variant: A16G G46U
-1.19

Another variant: G50A G83C U146G
-2.55

Another variant: C51G C125U G141U
-3.54

Another variant: A39U G100C U148A
-4.2

Another variant: C85U C116G
-0.942
